# systemUnderTest: human JAK2 (Homo sapiens (Human), UniProt O60674)
# Sequence (O60674 828-1132): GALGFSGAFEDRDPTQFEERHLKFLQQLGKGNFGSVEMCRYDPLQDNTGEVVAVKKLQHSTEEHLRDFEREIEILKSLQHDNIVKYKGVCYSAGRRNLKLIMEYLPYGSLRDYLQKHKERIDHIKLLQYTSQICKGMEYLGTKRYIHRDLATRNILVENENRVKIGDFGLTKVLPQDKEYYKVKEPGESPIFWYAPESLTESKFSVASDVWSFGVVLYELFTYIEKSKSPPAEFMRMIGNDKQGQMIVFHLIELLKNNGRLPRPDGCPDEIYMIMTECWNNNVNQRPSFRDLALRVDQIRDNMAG
# assayName: In vitro JAK kinase assay (Example A), JAK2
# Format: biochemical
# particulars: JAK2/JAK1 IC50 ratio, 1 mM ATP
readoutName: JAK2/JAK1

GET /values?readout=JAK2/JAK1&item= "CCNCc1cc(O[C@H]2CC[C@@H](N3CC(CC#N)(n4cc(-c5ncnc6[nH]ccc56)cn4)C3)CC2)nc(C(F)(F)F)c1"
>10

Which measured JAK2/JAK1 value corresponds to "N#CC[C@]1(n2cc(-c3ncnc4[nH]ccc34)cn2)C[C@H](N2CCC(Oc3cc(CN4CCC[C@H]4CO)cc(C(F)(F)F)n3)CC2)C1" ?
>10

Any idea what its JAK2/JAK1 is? The molecule is "C[C@@H](CO)NCc1cc(OC2CCN([C@H]3C[C@](CC#N)(n4cc(-c5ncnc6[nH]ccc56)cn4)C3)CC2)nc(C(F)(F)F)c1"
>10
